So I've got a bunch of proteins here, and I need their relative activity (initial increase in OD405) values.
# TGT: T1, Suc-AAPE-pNA
# T1 chain: AAPE
# MEASUREMENT CONDITIONS: scale: relative to the substrate with the highest activity
Numbers only.

Sample answers from the record:
[[record]]
protein = "Serine protease bppB from Bacillus pumilus JA16 (protein) VVIGDDGRTKVTNTRVAPYNSIAYITFGGSSCTGTLIAPNKILTNGHCVYNTATRSYSAKGSVYPGMNDSTAVNGSANMTEFYVPSGYINTGASQYDFAVIKTDTNIGNTVGYRSIRQVTNLTGTTIKISGYPGDKMRSTGKVSQWEMSGPVTREDTNLAYYTIDTFSGNSGSAMLDQNQQIVGVHNAGYSNGTINGGPKATAAFVEFINYAKAQ"
meas_value = 1

[[record]]
protein = "Serine protease from Nocardiopsis sp NRRL 18262 (protein) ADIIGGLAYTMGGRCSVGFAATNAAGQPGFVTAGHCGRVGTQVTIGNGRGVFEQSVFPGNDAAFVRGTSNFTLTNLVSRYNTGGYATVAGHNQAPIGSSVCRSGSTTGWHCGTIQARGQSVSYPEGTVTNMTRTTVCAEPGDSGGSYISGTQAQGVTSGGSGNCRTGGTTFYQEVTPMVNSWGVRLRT"
meas_value = 0.0004


Any idea what relative activity (initial increase in OD405) was measured for Trypsin from Fusarium oxysporum (protein) IVGGTSASAGDFPFIVSISRNGGPWCGGSLLNANTVLTAAHCVSGYAQSGFQIRAGSLSRTSGGITSSLSSVRVHPSYSGNNNDLAILKLSTSIPSGGNIGYARLAASGSDPVAGSSATVAGWGATSEGGSSTPVNLLKVTVPIVSRATCRAQYGTSAITNQMFCAGVSSGGKDSCQGDSGGPIVDSSNTLIGAVSWGNGCARPNYSGVYASVGALRSFIDTYA ? 0.0001
